Provide the recorded Kd for the entries that follow.
target: recombinant ZIKV DIII (domain III of the E protein, strain H/PF/2013, residues 299 to 407) (Zika virus, strain H/PF/2013, UniProt A0A024B7W1 591-694); test: BLI, biotinylated mAb on streptavidin sensor, DIII in solution; KD (equilibrium)
Sequence (A0A024B7W1 591-694 limits assumed): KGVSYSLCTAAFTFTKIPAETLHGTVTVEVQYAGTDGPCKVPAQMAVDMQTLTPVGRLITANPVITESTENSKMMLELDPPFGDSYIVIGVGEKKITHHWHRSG
Just the number please, in nM, no unit attached.

Qu. # Kd lookup, item ZV-48 monoclonal antibody (antibody, V domains shown, also called ZIKV-48) VH: QVQLQQPGAELLKPGASVKLSCKASGYSFSNYWMHWVKQRPGQGPEWIGMIHPNSGNTKYNEKFKNKATLTVDKSSSMVYMQLSSLTSEDSAVFYCARLGNDMDYWGQGTSVTVSS VL: DIVMSQSPSSLAVSVGEKITMSCKSSQSLLYSNNEKNYLAWYQQKPGQSPKLLIYWASARDSGVPDRFTGSGSGTDFTLTISSVKAEDLAVFYCQQYYSYPYTFGGGTKLEIK
Ans. 35

Qu. # Kd lookup, item ZV-2 monoclonal antibody (antibody, V domains shown, also called ZIKV-2) VH: QVQLQESGAELMKPGASVKLSCKTSGYTFIGYWIEWLKQRPGHGLEWVGEIFPGSGRTKYNEKFKGRATFTADTSSNMAYMQLSSLTTEDSAIYYCARYYYGSYYALDYWGQGTSVTVSS VL: DIVMTQSPSSLSVSAGEKVTLSCKSSQSLLHSGNQKNYLAWYQQKPGQAPKLLIYGASTRESGVPDRFTGSGSGTDFTLTISSVQAEDLAVYYCQNDHSYPLTFGAGTKLELK
Ans. 266

Qu. # Kd lookup, item ZV-54 monoclonal antibody (antibody, V domains shown, also called ZIKV-54) VH: QVQLQQSGVGLARPGTSVKLSCKASGYSFTTYGISWVTQRPGQGLEWIGVIYPRSNNTYYNERFRGKATLTADKSSSSAYLELRGLTAEDSAVYFCARENYGSVYWGQGTTLTVSS VL: DIVMTQSQKFMSTSVGDRVTITCKASQSVGTAVAWYHQKPGQSPKLLIYSASNRYTGVPDRFTGSGSGTDFTLTITYMQSEDLADYFCQQFSNYPFTFGGGTKLEIK
Ans. 7.9

Qu. # Kd lookup, item ZV-67 monoclonal antibody (antibody, V domains shown, also called ZIKV-67) VH: QAQLQQSGTGLARPGASVKLSCKASGYTFTSYGISWVTQRAGQGLEWIGVIYPRSGNTYYNEKFRGKATLTADKSSSSAYMELRGLTAEDSAVYFCARENYGSVYWGQGTTLTVSS VL: DIVMTQSQKFMSTSVGDRVSITCKASQNVGTAVAWYQQKPGQSPKLLIYSASNRYTGVPDRFTGSGSGTDFTLTISNMQSEDLADYFCQQFSSYPYTFGGGTKLEIK
Ans. 8.8
